# Protocol text: Cytotoxicity against human HL60 cells after 48 hrs by WST8 assay
# Assay type: functional, cell-based
# Measurement context: HL-60, 48 h
Quantity: pIC50
Reminder that pIC50 is minus the log10 of a molar concentration.

record_smiles=COc1ccc(C(c2ccc(OC)c(OC)c2)[C@H](C)[C@@H](C)CO)cc1OC quantity=pIC50 test_value=4.33
record_smiles=COC[C@@H](C)[C@@H](C)C(c1ccc(O)c(OC)c1)c1ccc(O)c(OC)c1 quantity=pIC50 test_value=4.07
record_smiles=COc1cc(C(c2ccc(O)c(OC)c2)[C@H](C)[C@@H](C)CF)ccc1O quantity=pIC50 test_value=4.35
record_smiles=COc1cc(C(c2ccc(O)c(OC)c2)[C@@H](C)[C@H](C)CF)ccc1O quantity=pIC50 test_value=4.49
record_smiles=COC[C@H](C)[C@@H](C)C(c1ccc(O)c(OC)c1)c1ccc(O)c(OC)c1 quantity=pIC50 test_value=4.17

Which pIC50 reading was recorded for the compound `COc1cc(C(c2ccc(O)c(OC)c2)[C@H](CC(C)C)C(C)C)ccc1O` ?
5.02

Which pIC50 reading was recorded for the compound `COC[C@@H](C(C)C)C(c1ccc(O)c(OC)c1)c1ccc(O)c(OC)c1` ?
4.27

Which pIC50 reading was recorded for the compound `CCCCCCCC[C@H](C(C)C)C(c1ccc(O)c(OC)c1)c1ccc(O)c(OC)c1` ?
5.43

---

# Protocol text: Cytotoxicity against human HL60 cells after 48 hrs by WST8 assay
# Type: functional, cell-based
# Measurement context: HL-60, 48 h
Quantity: IC50 (µM)
State the answer as a number, implicitly in µM.

Below, 2 compounds whose answers are already recorded.
record_smiles=COC[C@@H](C)[C@H](C)C(c1ccc(O)c(OC)c1)c1ccc(O)c(OC)c1 test_value=73
record_smiles=COc1cc(C(c2ccc(O)c(OC)c2)[C@H](C)[C@H](C)CF)ccc1O test_value=56

Which IC50 reading was recorded for the compound `COC[C@H](C(C)C)C(c1ccc(O)c(OC)c1)c1ccc(O)c(OC)c1` ?
72

---

# Protocol text: Cytotoxicity against human HL60 cells after 48 hrs by WST8 assay
# Format: functional, cell-based
# Measurement context: HL-60, 48 h
Quantity: pIC50
Reminder that pIC50 is minus the log10 of a molar concentration.

record_smiles=COc1cc(C(c2ccc(O)c(OC)c2)[C@@H](CF)C(C)C)ccc1O quantity=pIC50 test_value=4.41
record_smiles=CCCCC[C@H](C(C)C)C(c1ccc(O)c(OC)c1)c1ccc(O)c(OC)c1 quantity=pIC50 test_value=5.02
record_smiles=COC[C@H](C)[C@H](C)C(c1ccc(O)c(OC)c1)c1ccc(O)c(OC)c1 quantity=pIC50 test_value=4.09
record_smiles=COc1cc(C(c2ccc(O)c(OC)c2)[C@H](C)C(C)C)ccc1O quantity=pIC50 test_value=4.77

Which pIC50 reading was recorded for the compound `COc1cc(C(c2ccc(O)c(OC)c2)[C@@H](C)[C@@H](C)CF)ccc1O` ?
4.42

Which pIC50 reading was recorded for the compound `COc1cc(C(c2ccc(O)c(OC)c2)[C@@H](C)C(C)C)ccc1O` ?
4.70

Which pIC50 reading was recorded for the compound `CC[C@H](C(C)C)C(c1ccc(O)c(OC)c1)c1ccc(O)c(OC)c1` ?
4.80

Which pIC50 reading was recorded for the compound `COc1cc(C(c2ccc(O)c(OC)c2)[C@H](CF)C(C)C)ccc1O` ?
4.72
